# Tested on: VDR:RXRa (NR concentration 270 nM, RXRa partner concentration 90 nM)
# Method Description: PBM binding z-score (relative to random genomic background probes); higher = stronger binding; sequences stand for … in GC…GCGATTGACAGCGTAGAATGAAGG
Please respond with reported PBM binding z-score for every item in the list.
Numbers only.

Illustrative cases are given below, each with its answer.
- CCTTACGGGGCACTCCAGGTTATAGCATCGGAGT: 0.0326
- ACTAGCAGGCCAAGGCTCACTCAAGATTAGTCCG: -0.781
- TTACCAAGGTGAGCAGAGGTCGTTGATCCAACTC: 3.68

For every item below, please supply its PBM binding z-score.
1. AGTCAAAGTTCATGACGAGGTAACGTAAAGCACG
2. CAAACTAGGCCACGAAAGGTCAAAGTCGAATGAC
3. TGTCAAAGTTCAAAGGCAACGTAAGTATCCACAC
4. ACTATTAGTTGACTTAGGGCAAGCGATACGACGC

1. 4.64
2. 4.9
3. 4.26
4. 0.174

---

# Test system: PPARg homodimer (NR concentration 180 nM)
# Method Description: PBM binding z-score (relative to random genomic background probes); higher = stronger binding; sequences stand for … in GC…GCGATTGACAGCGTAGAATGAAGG
Hi all, reminder that labels come from PBM binding z-score, split as low (below 0.3), mid (0.3 to below 1), high (1 or more)

Look over these answered cases.
• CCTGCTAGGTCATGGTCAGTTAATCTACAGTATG = high
• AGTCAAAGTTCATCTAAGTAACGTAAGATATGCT = high
• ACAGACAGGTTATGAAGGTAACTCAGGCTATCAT = mid
• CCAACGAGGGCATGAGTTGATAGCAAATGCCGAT = low

Categorize the following entry: `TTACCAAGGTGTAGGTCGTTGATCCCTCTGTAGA` low

Categorize the following entry: `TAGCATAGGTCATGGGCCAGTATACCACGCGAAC` high

---

# Tested on: RARb:RXRa (NR concentration 270 nM, RXRa partner concentration 90 nM)
# Method Description: PBM binding z-score (relative to random genomic background probes); higher = stronger binding; sequences stand for … in GC…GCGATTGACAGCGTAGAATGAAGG
Recorded Metric: PBM binding z-score
Numbers only.

* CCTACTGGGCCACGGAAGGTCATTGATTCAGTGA | 3
* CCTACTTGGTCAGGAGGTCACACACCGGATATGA | 3.75
* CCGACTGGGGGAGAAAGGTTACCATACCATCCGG | 1.68

Value of PBM binding z-score reported for the sequence `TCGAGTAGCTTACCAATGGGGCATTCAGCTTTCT` is -0.426

---

# Test system: LXRb homodimer (NR concentration 270 nM)
# Method Description: PBM binding z-score (relative to random genomic background probes); higher = stronger binding; sequences stand for … in GC…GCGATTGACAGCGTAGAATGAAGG
Would you mind labelling by PBM binding z-score? At or over 0.3 is label 1, under is label 0.

- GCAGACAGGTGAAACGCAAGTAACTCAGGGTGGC: label 0
- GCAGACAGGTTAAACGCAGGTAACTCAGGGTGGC: label 0
- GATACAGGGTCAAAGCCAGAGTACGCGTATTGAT: label 0
- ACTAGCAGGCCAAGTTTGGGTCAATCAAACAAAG: label 0
- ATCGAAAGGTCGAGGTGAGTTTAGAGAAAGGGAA: label 1

Quick check, PBM binding z-score >= 0.3? `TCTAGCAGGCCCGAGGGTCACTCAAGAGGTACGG` label 0

Quick check, PBM binding z-score >= 0.3? `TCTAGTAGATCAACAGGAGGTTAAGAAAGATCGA` label 0

Quick check, PBM binding z-score >= 0.3? `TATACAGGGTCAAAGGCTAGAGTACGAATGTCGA` label 1

Quick check, PBM binding z-score >= 0.3? `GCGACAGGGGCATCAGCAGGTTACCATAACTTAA` label 0

Quick check, PBM binding z-score >= 0.3? `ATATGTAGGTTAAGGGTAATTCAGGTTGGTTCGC` label 1

Quick check, PBM binding z-score >= 0.3? `CCTAGCAGGCCAATCTGGGTCACCCAAGGCTTGA` label 0
